# experimentSummary: logP determination by HPLC (EEC Directive 79/831 Annex V.A8), reverse-phase column C 18
# Type: physicochemical
# experimentalContext: reverse-phase C18 HPLC column; stated in the preparation example; read-out: Log P
valueType: chromatographic logP
Give only the figure.

[[record]]
smilesdata = "CCn1ncc(C(=O)c2ccc(C(F)(F)F)cc2CS(C)(=O)=O)c1O"
valuemeasured = 1.88


So for CCn1ncc(C(=O)c2ccc(C(F)(F)F)cc2CS(C)(=O)=O)c1OCc1ccc(Br)cc1 , the logged chromatographic logP turned out to be 3.76
